Here, each record is paired with measured AC50 data.
system_name: 3',5'-cyclic-AMP phosphodiesterase 4D (Homo sapiens); further: assay procedure not described here
Sequence (Q08499 whole entry): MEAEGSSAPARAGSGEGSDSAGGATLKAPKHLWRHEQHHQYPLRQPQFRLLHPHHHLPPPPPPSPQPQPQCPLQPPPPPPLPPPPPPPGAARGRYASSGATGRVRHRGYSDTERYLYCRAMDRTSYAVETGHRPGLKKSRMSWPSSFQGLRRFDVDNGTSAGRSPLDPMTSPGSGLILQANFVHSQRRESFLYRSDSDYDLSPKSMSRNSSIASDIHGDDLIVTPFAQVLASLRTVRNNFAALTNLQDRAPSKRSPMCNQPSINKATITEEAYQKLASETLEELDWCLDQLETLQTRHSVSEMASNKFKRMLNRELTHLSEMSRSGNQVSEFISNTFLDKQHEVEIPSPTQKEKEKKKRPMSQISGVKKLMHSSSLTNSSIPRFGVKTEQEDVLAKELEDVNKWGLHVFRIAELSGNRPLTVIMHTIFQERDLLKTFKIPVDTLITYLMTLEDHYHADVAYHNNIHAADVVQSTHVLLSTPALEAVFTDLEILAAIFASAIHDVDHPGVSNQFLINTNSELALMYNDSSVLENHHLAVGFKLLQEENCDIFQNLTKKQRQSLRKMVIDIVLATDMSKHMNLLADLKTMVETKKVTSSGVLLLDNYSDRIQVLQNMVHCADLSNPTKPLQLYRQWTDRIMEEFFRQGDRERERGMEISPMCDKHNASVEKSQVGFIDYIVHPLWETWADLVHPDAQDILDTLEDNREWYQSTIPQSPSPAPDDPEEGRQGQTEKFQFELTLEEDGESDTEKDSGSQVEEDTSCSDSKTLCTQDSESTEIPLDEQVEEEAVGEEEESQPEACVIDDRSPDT
Assay type: functional
Where a SMILES comes first, the peptide text is derived from it. [ ]: non-standard residue; d: D form. pGlu = O=C1CC[C@@H](C(=O)O)N1; Thz = O=C(O)[C@@H]1CSCN1

Below, 5 compounds whose answers are already recorded.
COc1cc(N)c(Cl)cc1C(=O)NC1CCN(CCCOc2ccc(F)cc2)CC1OC (stereo not drawn) [CISAPRIDE] :: > 30 µM
O=C(c1cc(Cc2n[nH]c(=O)c3ccccc23)ccc1F)N1CCN(C(=O)C2CC2)CC1 :: > 30 µM
CCC1(c2ccc(N)cc2)CCC(=O)NC1=O (stereo not drawn) [AMINOGLUTETHIMIDE] :: 9.5 µM
CC1=C(C(=O)OC(C)C)C(c2cccc([N+](=O)[O-])c2)C(C(=O)OC2CN(C(c3ccccc3)c3ccccc3)C2)=C(N)N1 (stereo not drawn) :: 6.6 µM
Cc1ccnc2c1NC(=O)c1cccnc1N2C1CC1 :: > 10 µM

Entry under test: CCCN1CCCC[C@H]1C(=O)Nc1c(C)cccc1C . Its AC50 was > 30 µM

Entry under test: CC(=O)O[C@]1(C(C)=O)CC[C@H]2[C@@H]3C=C(Cl)C4=CC(=O)[C@@H]5C[C@@H]5[C@]4(C)[C@H]3CC[C@@]21C [CYPROTERONE ACETATE] . Its AC50 was > 30 µM

Entry under test: O=c1c(O)c(-c2ccc(O)c(O)c2)oc2cc(O)cc(O)c12 . Its AC50 was > 10 µM

Entry under test: CN(C)C/C=C/C(=O)Nc1cc2c(Nc3ccc(F)c(Cl)c3)ncnc2cc1O[C@H]1CCOC1 . Its AC50 was > 30 µM

Entry under test: Cc1cccc(C)c1NC(=O)CC12CCCN1CCC2 [PILSICAINIDE] . Its AC50 was > 30 µM

Entry under test: O=C1CC[C@@H](C(=O)N2CSC[C@H]2C(=O)O)N1 [PIDOTIMOD] ([pGlu]-[Thz]-OH) . Its AC50 was > 30 µM

Entry under test: Cc1nc(Nc2ncc(C(=O)Nc3c(C)cccc3Cl)s2)cc(N2CCN(CCO)CC2)n1 . Its AC50 was 28 µM

Entry under test: CNC[C@H](O)c1ccc(O)c(O)c1 [EPINEPHRINE] . Its AC50 was > 30 µM

Entry under test: CC(C)C[C@H](NC(=O)[C@@H](O)[C@H](N)Cc1ccccc1)C(=O)O . Its AC50 was > 30 µM

Entry under test: COc1cc(C)c(/C=C/C(C)=C/C=C/C(C)=C/C(=O)O)c(C)c1C . Its AC50 was > 30 µM

Entry under test: CN(C)CCCN1c2ccccc2CCc2ccccc21 . Its AC50 was > 10 µM

Entry under test: O=C(O)c1cccnc1Nc1cccc(C(F)(F)F)c1 . Its AC50 was > 30 µM

Entry under test: CC(C)c1cccc(C(C)C)c1O . Its AC50 was > 30 µM

* * *

Here, each record is paired with measured AC50 data.
system_name: Adenosine receptor A2a (Homo sapiens, UniProt P29274); further: assay procedure not described here
Sequence (P29274 whole entry): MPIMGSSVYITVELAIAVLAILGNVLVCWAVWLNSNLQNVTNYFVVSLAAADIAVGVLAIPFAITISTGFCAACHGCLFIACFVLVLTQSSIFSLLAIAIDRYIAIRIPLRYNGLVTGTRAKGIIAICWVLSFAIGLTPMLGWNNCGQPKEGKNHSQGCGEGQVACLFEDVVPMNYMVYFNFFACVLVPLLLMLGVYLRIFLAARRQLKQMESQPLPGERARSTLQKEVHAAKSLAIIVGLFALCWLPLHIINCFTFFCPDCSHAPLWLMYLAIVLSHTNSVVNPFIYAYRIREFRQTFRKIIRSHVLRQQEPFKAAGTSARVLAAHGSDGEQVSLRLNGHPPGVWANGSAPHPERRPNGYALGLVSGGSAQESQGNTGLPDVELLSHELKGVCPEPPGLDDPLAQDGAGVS

Below, 7 molecules whose answers are already recorded.
CC(=O)c1ccc(S(=O)(=O)NC(=O)NC2CCCCC2)cc1 [ACETOHEXAMIDE] :: > 10 µM
O=C1Nc2ccc(Cl)cc2C(c2ccccc2Cl)=NC1O (stereo not drawn) [LORAZEPAM] :: > 30 µM
O=c1[nH]c2ccccc2n1CCCN1CCN(C(c2ccccc2)c2ccccc2)CC1 [OXATOMIDE] :: > 30 µM
O=C(O)CCNC(=O)c1ccc(/N=N/c2ccc(O)c(C(=O)O)c2)cc1 [BALSALAZIDE] :: 33.1 µM
CCOC(=O)c1c(CSc2ccccc2)n(C)c2cc(Br)c(O)c(CN(C)C)c12 [UMIFENOVIR] :: 23 µM
CC(C)C[C@H](NC(=O)[C@@H](O)[C@H](N)Cc1ccccc1)C(=O)O [UBENIMEX] :: > 30 µM
CN(Cc1cnc2nc(N)nc(N)c2n1)c1ccc(C(=O)N[C@@H](CCC(=O)O)C(=O)O)cc1 [METHOTREXATE] :: > 30 µM

Turning now to a further record.
Response field AC50 (Adenosine receptor A2a (Homo sapiens, UniProt P29274)) for item CCOC(=O)[C@@H](N)Cc1ccc(-c2cc(O[C@H](c3ccc(Cl)cc3-n3ccc(C)n3)C(F)(F)F)nc(N)n2)cc1 [TELOTRISTAT ETHYL] : > 30 µM
